B1: library; a variant is named by its letters at N, in order (parent)
chain: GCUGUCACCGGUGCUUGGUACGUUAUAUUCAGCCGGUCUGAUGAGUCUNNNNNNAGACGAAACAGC

Variants of: B1
Assay: normalized RNA/DNA level without ligand (relative to sTRSVctl = 100) (log10 (% of sTRSVctl)); HEK293T overexpressing SLC46A1; higher = less ribozyme self-cleavage, higher mRNA level
Details: without (6R,S)-folinic acid; ligand present: no
Each item that follows carries a reported normalized RNA/DNA level without ligand (log10).
quantity: normalized RNA/DNA level without ligand (log10)

variantDesignation: UGUCCC
recordedMeasurement: 2.06
//
variantDesignation: UACCUU
recordedMeasurement: 2.02
//
variantDesignation: GCAGCG
recordedMeasurement: 1.98
//
variantDesignation: AUUCAG
recordedMeasurement: 1.96
//
variantDesignation: AAUUGU
recordedMeasurement: 1.95
//
variantDesignation: CUUGAU
recordedMeasurement: 1.97
//
variantDesignation: UUAUAG
recordedMeasurement: 1.81
//
variantDesignation: CAGUAC
recordedMeasurement: 1.96
//
variantDesignation: ACAACC
recordedMeasurement: 2.04
//
variantDesignation: UAGUUC
recordedMeasurement: 2.01
//
variantDesignation: CCCCCC
recordedMeasurement: 2.07
//
variantDesignation: UUUGCU
recordedMeasurement: 2.04
//
variantDesignation: CCUUAA
recordedMeasurement: 2.01
//
variantDesignation: UGCUGC
recordedMeasurement: 2.04
//
variantDesignation: CUCACG
recordedMeasurement: 2.04
//
variantDesignation: CGAGCU
recordedMeasurement: 2.01
//
variantDesignation: UCCAUA
recordedMeasurement: 1.97
//
variantDesignation: AUAAUA
recordedMeasurement: 1.98
//
variantDesignation: AACCCC
recordedMeasurement: 2.01
//
variantDesignation: UUUGCG
recordedMeasurement: 1.87
//
variantDesignation: CUAUUA
recordedMeasurement: 2.02
//
variantDesignation: CUAUAG
recordedMeasurement: 1.91
//
variantDesignation: GUACAA
recordedMeasurement: 1.97
//
variantDesignation: AAGGGA
recordedMeasurement: 1.95
//
variantDesignation: GUGGGA
recordedMeasurement: 2.02
//
variantDesignation: UCAAGG
recordedMeasurement: 1.96
//
variantDesignation: CUAUUU
recordedMeasurement: 1.98
//
variantDesignation: CUCCGG
recordedMeasurement: 2.04
//
variantDesignation: CGGGAU
recordedMeasurement: 1.97

Each recorded value in this set is attributed to the supplement of paper PMC6757056.
